test system: CAKI-1 renal; assay: NCI tumour cell line growth inhibition, 48 h
Below, each of the compounds is paired with its reported TGI value.

Hello, please tell me recorded TGI for this one: CN(C)CC1CCCC1=O (configuration not stated)
0.373 µM

====

system: NCI-H226 lung; assay: NCI tumour cell line growth inhibition, 48 h
Where a SMILES comes first, the peptide text is derived from it. [ ]: non-standard residue; d: D form. The star is where a group is joined. mTyr = N[CH](Cc1cccc(O)c1)C(=O)O; Cbz = O=C(OCc1ccccc1)*; OBn = c1ccc(CO*)cc1
measureName: TGI

Take a look at these entries with their results.
molecule="CC(C)(C)c1cc(C2COC(c3cc(C(C)(C)C)c(O)c(C(C)(C)C)c3)CO2)cc(C(C)(C)C)c1O (stereo not drawn)" measurename=TGI assayresult="> 100 µM"
molecule="CCN(CCO)CC(C)Nc1ccc([N+](=O)[O-])c2sc3ccccc3c(=O)c12 (stereo not drawn)" measurename=TGI assayresult="7.15 µM"
molecule="COC(=O)C(Cc1cccc(O)c1)NC(=O)C(CC(=O)OCc1ccccc1)NC(=O)OCc1ccccc1 (stereo not drawn) (Cbz-Asp(OBn)-[mTyr]-OMe; configuration not given here)" measurename=TGI assayresult="> 100 µM"
molecule=COc1ccc(C(=O)c2[nH]c(Nc3ccc(Cl)cc3)c(C(=S)Nc3ccccc3)c2N)cc1 measurename=TGI assayresult="> 100 µM"
molecule="CSCCC(NC(=O)Cc1ccc(C(=O)c2ccccc2)cc1)C(=O)O (stereo not drawn)" measurename=TGI assayresult="> 100 µM"
molecule="CC1(O)OC(=O)C2=C1CCC1C2CCC2(C)C(O)CCC12 (stereo not drawn)" measurename=TGI assayresult="> 100 µM"
molecule=CC[C@@H](/C=C\CCC(=O)C[C@H](O)CCC=C(C)C)O[Si](C(C)C)(C(C)C)C(C)C measurename=TGI assayresult="> 100 µM"
molecule=CCC[C@H](C)C[C@H](C)C[C@H](C)/C=C(\C)[C@@H](O)[C@@H](C)C(=O)CC measurename=TGI assayresult="42.6 µM"

Read off the recorded TGI for C=C1CCC2[C@@H](CCC3[C@]2(C)CCC[C@]3(C)C(=O)OC)[C@@H]1CC=O (stereo partly drawn)
> 100 µM

Specify TGI for "COc1ccc(OC)c(Cn2cc3c(c2)-c2oncc2CC3)c1" and stop.
> 100 µM

Give TGI for the following molecule: "COc1ccc(N=C2C(=Nc3ccc(OC)cc3)N(c3ccccc3)C(=S)N2N=C=C2Sc3ccccc3N2C)cc1"
> 100 µM

Consider the molecule "Cc1ccc2nc(NC(=O)/C(Cc3nc4ccc(Cl)cc4[nH]c3=O)=N\NC(C)(C)C)sc2c1" and give its recorded TGI.
91.3 µM

Recall and state the measured TGI for "CSC(=S)N/N=C(\C)c1cccc(C)n1" .
10.7 µM

====

test system: MDA-MB-435; experiment: NCI tumour cell line growth inhibition, 48 h
Please enter label 1 where TGI is greater than or equal to 3 µM, and label 0 where it is lower.

Record excerpt, results attached:
molecule=CC(=O)Oc1ccccc1C(=O)/C=C/c1cccc([N+](=O)[O-])c1 measuredon=MDA-MB-435 classlabel="label 1"
molecule="Cc1ccc(/C=C2\\CCCC(CN3CCCCC3)C2=O)cc1 (stereo unspecified)" measuredon=MDA-MB-435 classlabel="label 1"
molecule=CCN(CC)CCNCc1cc(Cl)cc2c1OCOC2 measuredon=MDA-MB-435 classlabel="label 1"

Could you verify whether the entry "CN(C)CCCN1c2ccccc2CCc2ccc([N+](=O)[O-])cc21" shows TGI of no less than 3 µM?
label 1

Reported TGI reaches at least 3 µM for "C[CH2][Pb]([CH2]C)([CH2]C)[O]C(=O)c1ccc2ccccc2n1" ?
label 1

Check if TGI >= 3 µM (inclusive). Item: C=CCOC(=O)C1C2OC3(C(C(=O)OC)=C2C(=O)OC)c2ccccc2CCC13 (stereo unspecified)
label 1

Evaluate "CCOc1ccc(-n2nnc3c(N)nc(N)nc32)cc1" : TGI at minimum 3 µM?
label 1

Entry COC1O[C@@H]2C[C@H]3C(C)(C)CCC[C@]3(C)C3=CCCC1[C@@]32C (stereo partly specified) : is its TGI no less than 3 µM?
label 1

====

tested on: SW-620 colon; test: NCI tumour cell line growth inhibition, 48 h
Listing of entries alongside the reported TGI.

Note TGI for the compound shown: CC(C)(C)c1cc(C2COC(c3cc(C(C)(C)C)c(O)c(C(C)(C)C)c3)CO2)cc(C(C)(C)C)c1O (centres undefined)
> 100 µM

Fill in TGI for record "CCCCCCN(N)C(=O)CC#N"
> 100 µM

Look up TGI of OC1(c2ccccc2)CSC2=Nc3ccccc3C3CCN1N23 (centres undefined) and report it.
47.1 µM

====

system: HCT-116 colon; assay: NCI tumour cell line growth inhibition, 48 h
measureName: TGI

Known TGI results, listed for orientation:
compound="O=P1(Oc2ccccc2)C(c2ccccc2)C(c2ccccc2)=NN1c1ccccc1 (centres undefined)" measurename=TGI assayresult="31.3 µM"
compound=CCC1(COC(NC(=O)c2ccccc2)(C(F)(F)F)C(F)(F)F)COC1 measurename=TGI assayresult="> 100 µM"
compound=N#CN1CC[C@H](C(=O)Nc2ncc(-c3ccncc3)s2)C1 measurename=TGI assayresult="3.2 µM"

Field: next compound
Supply measured TGI of Cc1ccc(CC(C)N)cc1 (centres undefined) in your reply.
> 100 µM

====

test system: OVCAR-3 ovarian; assay: NCI tumour cell line growth inhibition, 48 h
Here the recorded TGI is given for each entry.

compound=CN(C)c1ccc(N=Nc2ccncc2)cc1 measurename=TGI assayresult="> 100 µM"
compound=CN1CCC(n2cnc(-c3ccc(F)cc3)c2-c2ccnc(N)n2)CC1 measurename=TGI assayresult="> 25 µM"
compound=C[CH2][Pb]([CH2]C)([CH2]C)[O]C(=O)c1ccc2ccccc2n1 measurename=TGI assayresult="> 10 µM"

Check OVCAR-3 ovarian data and give TGI for "Cc1cc(N(CCC#N)CCC#N)ccc1/C=C1N=C(/C=C\c2ccccc2)N(c2ccc(Cl)cc2)C\1=O" .
> 100 µM

Identify measured TGI obtained with OVCAR-3 ovarian for COC1O[C@@H]2C[C@H]3C(C)(C)CCC[C@]3(C)C3=CCCC1[C@@]32C (stereo not given in full) .
> 100 µM

====

system: SW-620 colon; experiment: NCI tumour cell line growth inhibition, 48 h
Where a SMILES comes first, the peptide text is derived from it. [ ]: non-standard residue; d: D form. The star is where a group is joined. mTyr = N[CH](Cc1cccc(O)c1)C(=O)O; Cbz = O=C(OCc1ccccc1)*; OBn = c1ccc(CO*)cc1
Reported TGI values for a set of compounds

compound=O=C(O)COc1c(Cl)cc(Cl)c2cccnc12 assayresult="> 100 µM"
compound=Cc1ccc(/C(O)=C/C(=O)C(=O)NN=C(c2ccccc2)c2ccccc2)cc1 assayresult="> 100 µM"
compound="COC(=O)C(Cc1cccc(O)c1)NC(=O)C(CC(=O)OCc1ccccc1)NC(=O)OCc1ccccc1 (configuration not stated) (Cbz-Asp(OBn)-[mTyr]-OMe; configuration not given here)" assayresult="> 100 µM"
compound="Cc1ccc(C2=Nc3ccccc3SC(c3cccc([N+](=O)[O-])c3)C2)cc1 (configuration not stated)" assayresult="> 100 µM"
compound=CN(C)c1ccc(N=Nc2ccncc2)cc1 assayresult="> 100 µM"
compound=CN(C)c1ccc(/C=C2\C=Cc3ccccc32)cc1 assayresult="> 100 µM"

From here, focus on the item given below.
// fetch TGI given entry "O=C(CSC1=NCCN1)Nc1ccccc1"
> 100 µM

====

tested on: RXF 393 renal; assay: NCI tumour cell line growth inhibition, 48 h
measureName: TGI

molecule="CSCCC(NC(=O)Cc1ccc(C(=O)c2ccccc2)cc1)C(=O)O (centres undefined)" assayresult="> 100 µM"
molecule="c1ccc2c3c([nH]c2c1)C1CCCN1CC3 (centres undefined)" assayresult="> 10 µM"
molecule=COc1ccc2oc(=N)c(C(=O)Nc3ccccn3)cc2c1 assayresult="> 100 µM"

Hello, please tell me recorded TGI for this one: "Cc1ccc2nc(NC(=O)/C(Cc3nc4ccc(Cl)cc4[nH]c3=O)=N\NC(C)(C)C)sc2c1"
> 100 µM

====

test system: SF-295 CNS; test: NCI tumour cell line growth inhibition, 48 h
measureName: TGI

compound=O=C(Oc1cccnc1)c1ccsc1Nc1ccnc(C(F)(F)F)c1 assayresult="> 100 µM"
compound="c1ccc2c3c([nH]c2c1)C1CCCN1CC3 (stereo not drawn)" assayresult="> 10 µM"

Recall the reported TGI of "[N-]=[N+]=C1C(=O)C2CC3CC(C2)CC1C3" when tested on SF-295 CNS.
> 100 µM

====

system: LOX IMVI melanoma; test: NCI tumour cell line growth inhibition, 48 h
The compounds listed here are annotated with their TGI.

Reference set, count: 3
compound=Cn1cc(-c2nonc2-c2cn(C)c3ccccc23)c2ccccc21 assayresult="> 100 µM"
compound="CC1(C)OCC(C(O)C2OC(C)(C)OC2/C=N\\O)O1 (stereo unspecified)" assayresult="> 100 µM"
compound="Cc1ccc(/C=C2\\CCCC(CN3CCCCC3)C2=O)cc1 (stereo unspecified)" assayresult="3.29 µM"

Identify the reported TGI for the following entry. "Nc1ccc(CCN2CCN(CCCc3ccccc3)CC2)cc1"
> 100 µM

Could you please provide reported TGI for "CSC(=S)N/N=C(\C)c1cccc(C)n1" ? Thanks!
15.1 µM

Given the compound COc1ccc(OC)c(C2SCC(=O)N2NC(=O)C(O)c2ccccc2)c1 (stereo unspecified) , write its reported TGI.
> 100 µM

Tell me TGI reported for "Cc1ccc2c(=O)cc(-c3ccc(-c4ccccc4)s3)[nH]c2n1"
> 100 µM

For the compound "O=C(O)COc1c(Cl)cc(Cl)c2cccnc12" , report TGI.
> 100 µM

Find the measured TGI of "O[C@H]1[C@H](O)[C@@H](O)[C@@]2(O)C[C@@H](O)[C@@H]1N2" and report it.
> 100 µM

Note down TGI recorded for CC1(C)OC2C(=O)C=C(COCc3ccccc3)C2O1 (stereo unspecified)
53.5 µM
